Test system: type-I interferon signaling pathway
Assay: SEAP reporter gene assay in HEK-Blue IFNα/β cells stimulated with IFN-α2a
Type: cell-based
Conditions: Homo sapiens
ENDPOINT_NAME: IC50 (nM)
Express the result in nM but write the number alone.

Enquiry: Query IC50 for O=C(Nc1ccc([N+](=O)[O-])cc1Cl)c1cc(Cl)ccc1O [niclosamide, Niclosamide]
Return: 370

Sourced from paper PMC6251811
